# experimental-target: HLA-A*02:01
# protocol-summary: IEDB peptide-MHC binding, purified MHC/competitive/radioactivity; filed as Kd, often an IC50 or EC50 that approximates it; bounds were set here for any values at or beyond the usual limits of such assays
# condition-label: source organism: Hepacivirus hominis
pKd: −log10 of the molar value.
quantity: pKd

RNWAHSSL has a reported pKd of ≤ 4.16

----------
# experimental-target: HLA-A*02:11
# protocol-summary: IEDB peptide-MHC binding, purified MHC/direct/fluorescence; filed as Kd, often an IC50 or EC50 that approximates it; bounds were set here for any values at or beyond the usual limits of such assays
# condition-label: source organism: Rickettsia bellii RML369-C
quantity: Kd

NPLEIYQEI has a reported Kd of ≥ 20 µM

Provenance of the data: the Immune Epitope Database (IEDB)
